- Read-out: Alpha-fetoprotein (AFP) gene, AFP (gene 174)
- PROTOCOL TEXT: LTEA_HepaRG_AFP: Life Technologies and Expression Analysis (LTEA) Assay for Alpha-fetoprotein (AFP) gene using HepaRG (AID 2283472)
- ASSAY CONDITIONS: mRNA level, 48 h; actives raise or lower the signal
Calls of active or inactive are those of the source. Rule for the calls: active = hit-call score of the fitted dose curve at least 0.9, where 1 is the maximum; inactive = score below 0.9.
The reply should be one of these categories: active, inactive

c1ccc2c(c1)-c1cccc3cccc-2c13 ... inactive
Cc1ccc(N)cc1 ... inactive
O=C(Oc1ccc(Br)cc1)N1CCN2CCC1CC2 ... inactive
CC(C)(C)OOC(=O)c1ccccc1 ... inactive
CC(C)N(Cc1ccccc1)C(=O)C(C)(C)C ... inactive

Shift focus to the following entry.
Could you please tell me the result logged for OCCCl in this assay?
inactive
